# Tested on: Gene 6
# method: Gene modulating activity in colon cancer cells (RT-PCR RNA expression), Gene 6
# Type: cell-based, human
# measurement_setup: HT29 cell line (colon tumor), compound 10 μM, 24 hours, vs control
// NB: equality with -1 Folds counts as 0.0; only Gene 6 Folds of up (+) or down (−) regulatlon strictly below is 1.0

- compound: "CC(C)CN(C(=O)c1ccccc1)C1CCCC1Sc1ccccc1 (stereo not shown) [AV-96]"
  system: "Gene 6"
  class_label: 1.0
- compound: "CCCN(C(=O)Nc1ccc(-c2ccccc2)cc1)C1COCC1SC (stereo not shown) [AV-916]"
  system: "Gene 6"
  class_label: 0.0
- compound: "CN(C(=O)C1CCC1)C1CCCCC1Sc1ccccc1 (stereo not shown) [AV-283]"
  system: "Gene 6"
  class_label: 1.0
- compound: "COCCN(C(=O)COc1ccccc1)C1CCCC1Sc1ccccc1 (stereo not shown) [AV-1241]"
  system: "Gene 6"
  class_label: 0.0
- compound: "CSC1CCCC1NC(=O)Nc1cccc(Cl)c1 (stereo not shown) [AV-988]"
  system: "Gene 6"
  class_label: 0.0

Quick check: does CCCN(C(=O)c1ccccc1)C1CCCC1Sc1ccccc1 (stereo not shown) [AV-221] have Gene 6 Folds of up (+) or down (−) regulatlon under -1 Folds?
1.0

Quick check: does O=C(Nc1ccc(-c2ccccc2)cc1)N(Cc1ccccc1)C1CCCC1Sc1ccccc1 (stereo not shown) [AV-1030] have Gene 6 Folds of up (+) or down (−) regulatlon under -1 Folds?
0.0

---

# System: Gene 10
# method: Gene modulating activity in colon cancer cells (RT-PCR RNA expression), Gene 10
# Format: cell-based, human
# measurement_setup: HT29 cell line (colon tumor), compound 10 μM, 24 hours, vs control
// NB: equality with -2 Folds counts as false (0); only Gene 10 Folds of up (+) or down (−) regulatlon strictly below is true (1)

- molecule: "CCCN(C(=O)Nc1ccc(-c2ccccc2)cc1)C1COCC1SC (stereo not shown) [AV-916]"
  system: "Gene 10"
  class_label: "true (1)"

For the next question, use this molecule.
Quick check: does O=C(Nc1ccc(-c2ccccc2)cc1)N(Cc1ccccc1)C1CCCC1Sc1ccccc1 (stereo not shown) [AV-1030] have Gene 10 Folds of up (+) or down (−) regulatlon under -2 Folds?
true (1)

---

# System: Gene 3
# method: Gene modulating activity in colon cancer cells (RT-PCR RNA expression), Gene 3
# Type: cell-based, human
# measurement_setup: HT29 cell line (colon tumor), compound 10 μM, 24 hours, vs control
Think of -1 Folds as a floor: if Gene 3 Folds of up (+) or down (−) regulatlon stands on it or above, it is t; beneath it, f.

Solved cases below.
- compound: "CN(C(=O)C1CCC1)C1CCCCC1Sc1ccccc1 (stereo not shown)"
  class_label: "f"
- compound: "CC(C)CN(C(=O)c1ccccc1)C1CCCC1Sc1ccccc1 (stereo not shown)"
  class_label: "t"
- compound: "CSC1CCCC1NC(=O)Nc1cccc(Cl)c1 (stereo not shown)"
  class_label: "f"
- compound: "COCCN(C(=O)COc1ccccc1)C1CCCC1Sc1ccccc1 (stereo not shown)"
  class_label: "t"
- compound: "CCCN(C(=O)Nc1ccc(-c2ccccc2)cc1)C1COCC1SC (stereo not shown)"
  class_label: "f"

Has CCCN(C(=O)c1ccccc1)C1CCCC1Sc1ccccc1 (stereo not shown) a recorded Gene 3 Folds of up (+) or down (−) regulatlon greater than or equal to -1 Folds?
f

Has O=C(Nc1ccc(-c2ccccc2)cc1)N(Cc1ccccc1)C1CCCC1Sc1ccccc1 (stereo not shown) a recorded Gene 3 Folds of up (+) or down (−) regulatlon greater than or equal to -1 Folds?
f
